- condition label: in n-butanol, 298.15 K
endpoint label: solubility (mole fraction)

Given item CCOC(=O)C1=C[C@]2(CC)CCCN3CCc4c(n1c1ccccc41)[C@@H]32 , the value recorded as its solubility (mole fraction) is 0.0022

* * *

- condition label: in cyclohexane, 293.15 K
endpoint label: solubility (mole fraction)
Output spec: single numeric token, no unit.

Given item CCOC(=O)C1=C[C@]2(CC)CCCN3CCc4c(n1c1ccccc41)[C@@H]32 , the value recorded as its solubility (mole fraction) is 0.00216

* * *

- condition label: in ethyl acetate, 303.15 K
endpoint label: solubility (mole fraction)
Output spec: single numeric token, no unit.

Given item CCOC(=O)C1=C[C@]2(CC)CCCN3CCc4c(n1c1ccccc41)[C@@H]32 , the value recorded as its solubility (mole fraction) is 0.00879

* * *

- condition label: in ethyl acetate, 318.15 K
endpoint label: solubility (mole fraction)
Output spec: single numeric token, no unit.

Given item CCOC(=O)C1=C[C@]2(CC)CCCN3CCc4c(n1c1ccccc41)[C@@H]32 , the value recorded as its solubility (mole fraction) is 0.0154

* * *

- condition label: in methyl acetate, 283.15 K
endpoint label: solubility (mole fraction)
Output spec: single numeric token, no unit.

Given item CCOC(=O)C1=C[C@]2(CC)CCCN3CCc4c(n1c1ccccc41)[C@@H]32 , the value recorded as its solubility (mole fraction) is 0.00262

* * *

- condition label: in ethanol, 298.15 K
endpoint label: solubility (mole fraction)
Output spec: single numeric token, no unit.

Given item CCOC(=O)C1=C[C@]2(CC)CCCN3CCc4c(n1c1ccccc41)[C@@H]32 , the value recorded as its solubility (mole fraction) is 0.00101

* * *

- condition label: in 2-butanone, 283.15 K
endpoint label: solubility (mole fraction)
Output spec: single numeric token, no unit.

Given item CCOC(=O)C1=C[C@]2(CC)CCCN3CCc4c(n1c1ccccc41)[C@@H]32 , the value recorded as its solubility (mole fraction) is 0.00526

* * *

- condition label: in ethanol, 283.15 K
endpoint label: solubility (mole fraction)
Output spec: single numeric token, no unit.

Given item CCOC(=O)C1=C[C@]2(CC)CCCN3CCc4c(n1c1ccccc41)[C@@H]32 , the value recorded as its solubility (mole fraction) is 0.000492

* * *

- condition label: in cyclohexane, 288.15 K
endpoint label: solubility (mole fraction)
Output spec: single numeric token, no unit.

Given item CCOC(=O)C1=C[C@]2(CC)CCCN3CCc4c(n1c1ccccc41)[C@@H]32 , the value recorded as its solubility (mole fraction) is 0.0017

* * *

- condition label: in ethyl acetate, 293.15 K
endpoint label: solubility (mole fraction)
Output spec: single numeric token, no unit.

Given item CCOC(=O)C1=C[C@]2(CC)CCCN3CCc4c(n1c1ccccc41)[C@@H]32 , the value recorded as its solubility (mole fraction) is 0.00585

* * *

- condition label: in n-propanol, 313.15 K
endpoint label: solubility (mole fraction)

Given item CCOC(=O)C1=C[C@]2(CC)CCCN3CCc4c(n1c1ccccc41)[C@@H]32 , the value recorded as its solubility (mole fraction) is 0.00343

* * *

- condition label: in n-butanol, 318.15 K
endpoint label: solubility (mole fraction)
Output spec: single numeric token, no unit.

Given item CCOC(=O)C1=C[C@]2(CC)CCCN3CCc4c(n1c1ccccc41)[C@@H]32 , the value recorded as its solubility (mole fraction) is 0.00632

* * *

- condition label: in methyl acetate, 293.15 K
endpoint label: solubility (mole fraction)
Output spec: single numeric token, no unit.

Given item CCOC(=O)C1=C[C@]2(CC)CCCN3CCc4c(n1c1ccccc41)[C@@H]32 , the value recorded as its solubility (mole fraction) is 0.00416

* * *

- condition label: in methanol, 318.15 K
endpoint label: solubility (mole fraction)

Given item CCOC(=O)C1=C[C@]2(CC)CCCN3CCc4c(n1c1ccccc41)[C@@H]32 , the value recorded as its solubility (mole fraction) is 0.00166

* * *

- condition label: in cyclohexane, 283.15 K
endpoint label: solubility (mole fraction)

Given item CCOC(=O)C1=C[C@]2(CC)CCCN3CCc4c(n1c1ccccc41)[C@@H]32 , the value recorded as its solubility (mole fraction) is 0.00133

* * *

- condition label: in n-butanol, 288.15 K
endpoint label: solubility (mole fraction)
Output spec: single numeric token, no unit.

Given item CCOC(=O)C1=C[C@]2(CC)CCCN3CCc4c(n1c1ccccc41)[C@@H]32 , the value recorded as its solubility (mole fraction) is 0.00127

* * *

- condition label: in methanol, 313.15 K
endpoint label: solubility (mole fraction)
Output spec: single numeric token, no unit.

Given item CCOC(=O)C1=C[C@]2(CC)CCCN3CCc4c(n1c1ccccc41)[C@@H]32 , the value recorded as its solubility (mole fraction) is 0.00136

* * *

- condition label: in methanol, 293.15 K
endpoint label: solubility (mole fraction)
Output spec: single numeric token, no unit.

Given item CCOC(=O)C1=C[C@]2(CC)CCCN3CCc4c(n1c1ccccc41)[C@@H]32 , the value recorded as its solubility (mole fraction) is 0.000608

* * *

- condition label: in 2-butanone, 323.15 K
endpoint label: solubility (mole fraction)
Output spec: single numeric token, no unit.

Given item CCOC(=O)C1=C[C@]2(CC)CCCN3CCc4c(n1c1ccccc41)[C@@H]32 , the value recorded as its solubility (mole fraction) is 0.0239

* * *

- condition label: in methyl acetate, 288.15 K
endpoint label: solubility (mole fraction)
Output spec: single numeric token, no unit.

Given item CCOC(=O)C1=C[C@]2(CC)CCCN3CCc4c(n1c1ccccc41)[C@@H]32 , the value recorded as its solubility (mole fraction) is 0.00329

* * *

- condition label: in methanol, 288.15 K
endpoint label: solubility (mole fraction)
Output spec: single numeric token, no unit.

Given item CCOC(=O)C1=C[C@]2(CC)CCCN3CCc4c(n1c1ccccc41)[C@@H]32 , the value recorded as its solubility (mole fraction) is 0.000476

* * *

- condition label: in ethyl acetate, 323.15 K
endpoint label: solubility (mole fraction)
Output spec: single numeric token, no unit.

Given item CCOC(=O)C1=C[C@]2(CC)CCCN3CCc4c(n1c1ccccc41)[C@@H]32 , the value recorded as its solubility (mole fraction) is 0.0185

* * *

- condition label: in n-butanol, 293.15 K
endpoint label: solubility (mole fraction)
Output spec: single numeric token, no unit.

Given item CCOC(=O)C1=C[C@]2(CC)CCCN3CCc4c(n1c1ccccc41)[C@@H]32 , the value recorded as its solubility (mole fraction) is 0.0017

* * *

- condition label: in isopropanol, 318.15 K
endpoint label: solubility (mole fraction)
Output spec: single numeric token, no unit.

Given item CCOC(=O)C1=C[C@]2(CC)CCCN3CCc4c(n1c1ccccc41)[C@@H]32 , the value recorded as its solubility (mole fraction) is 0.00245

* * *

- condition label: in methyl acetate, 323.15 K
endpoint label: solubility (mole fraction)
Output spec: single numeric token, no unit.

Given item CCOC(=O)C1=C[C@]2(CC)CCCN3CCc4c(n1c1ccccc41)[C@@H]32 , the value recorded as its solubility (mole fraction) is 0.0148

* * *

- condition label: in n-propanol, 288.15 K
endpoint label: solubility (mole fraction)
Output spec: single numeric token, no unit.

Given item CCOC(=O)C1=C[C@]2(CC)CCCN3CCc4c(n1c1ccccc41)[C@@H]32 , the value recorded as its solubility (mole fraction) is 0.00098

* * *

- condition label: in ethanol, 318.15 K
endpoint label: solubility (mole fraction)
Output spec: single numeric token, no unit.

Given item CCOC(=O)C1=C[C@]2(CC)CCCN3CCc4c(n1c1ccccc41)[C@@H]32 , the value recorded as its solubility (mole fraction) is 0.00245

* * *

- condition label: in ethyl acetate, 288.15 K
endpoint label: solubility (mole fraction)
Output spec: single numeric token, no unit.

Given item CCOC(=O)C1=C[C@]2(CC)CCCN3CCc4c(n1c1ccccc41)[C@@H]32 , the value recorded as its solubility (mole fraction) is 0.00481

* * *

- condition label: in n-propanol, 283.15 K
endpoint label: solubility (mole fraction)
Output spec: single numeric token, no unit.

Given item CCOC(=O)C1=C[C@]2(CC)CCCN3CCc4c(n1c1ccccc41)[C@@H]32 , the value recorded as its solubility (mole fraction) is 0.000727

* * *

- condition label: in n-propanol, 293.15 K
endpoint label: solubility (mole fraction)

Given item CCOC(=O)C1=C[C@]2(CC)CCCN3CCc4c(n1c1ccccc41)[C@@H]32 , the value recorded as its solubility (mole fraction) is 0.00126

* * *

- condition label: in n-butanol, 323.15 K
endpoint label: solubility (mole fraction)
Output spec: single numeric token, no unit.

Given item CCOC(=O)C1=C[C@]2(CC)CCCN3CCc4c(n1c1ccccc41)[C@@H]32 , the value recorded as its solubility (mole fraction) is 0.00806

* * *

- condition label: in methanol, 308.15 K
endpoint label: solubility (mole fraction)
Output spec: single numeric token, no unit.

Given item CCOC(=O)C1=C[C@]2(CC)CCCN3CCc4c(n1c1ccccc41)[C@@H]32 , the value recorded as its solubility (mole fraction) is 0.0011

Cited source: BigSolDB 2.1
